STUDY_TARGET: human TLR9 (Homo sapiens)
Sequence (Q9NR96 26-1032): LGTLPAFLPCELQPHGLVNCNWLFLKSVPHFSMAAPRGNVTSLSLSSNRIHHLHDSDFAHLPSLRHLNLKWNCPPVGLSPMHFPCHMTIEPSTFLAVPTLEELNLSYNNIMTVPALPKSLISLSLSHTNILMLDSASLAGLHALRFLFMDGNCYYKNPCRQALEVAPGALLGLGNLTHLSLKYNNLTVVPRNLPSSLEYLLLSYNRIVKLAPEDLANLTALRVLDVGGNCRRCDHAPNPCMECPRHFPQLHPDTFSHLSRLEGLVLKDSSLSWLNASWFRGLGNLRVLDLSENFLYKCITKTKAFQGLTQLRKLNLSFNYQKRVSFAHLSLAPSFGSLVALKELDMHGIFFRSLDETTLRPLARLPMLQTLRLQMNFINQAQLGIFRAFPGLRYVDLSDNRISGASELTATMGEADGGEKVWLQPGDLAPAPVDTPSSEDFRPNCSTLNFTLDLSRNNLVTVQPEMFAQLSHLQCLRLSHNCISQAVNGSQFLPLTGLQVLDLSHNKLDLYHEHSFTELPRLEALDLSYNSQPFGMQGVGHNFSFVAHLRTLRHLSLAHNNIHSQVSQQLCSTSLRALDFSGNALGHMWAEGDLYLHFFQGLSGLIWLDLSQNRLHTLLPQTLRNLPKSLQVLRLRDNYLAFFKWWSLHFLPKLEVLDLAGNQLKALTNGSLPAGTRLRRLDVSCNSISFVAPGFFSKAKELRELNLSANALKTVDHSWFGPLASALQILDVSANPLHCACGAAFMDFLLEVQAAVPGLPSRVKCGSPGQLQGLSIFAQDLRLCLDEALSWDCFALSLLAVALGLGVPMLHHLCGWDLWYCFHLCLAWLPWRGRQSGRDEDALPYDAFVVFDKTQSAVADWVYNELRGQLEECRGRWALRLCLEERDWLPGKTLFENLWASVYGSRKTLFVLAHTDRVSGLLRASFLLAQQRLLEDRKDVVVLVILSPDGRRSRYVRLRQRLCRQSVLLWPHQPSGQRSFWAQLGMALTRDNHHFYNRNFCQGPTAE
PROCEDURE_DETAILS: HEK293-Blue-hTLR-9 cells assay (SEAP reporter, ODN2006 stimulation)
CONDITION_NOTES: HEK293-Blue-hTLR9 cells, ODN2006 ligand, 20 hrs incubation
IC50 values for the compounds below.
Express the result in nM but write the number alone.

[[record]]
compound = "N#Cc1ccc(N2CC(CN3CCC4NCC4C3)C3(CC3)C2)c2nccnc12 (centres unmarked)"
study_target = "human TLR9 (Homo sapiens)"
recorded_endpoint = "IC50"
units_text = "nM"
reported_value = 123

[[record]]
compound = "CC1(CN)CCN(C[C@H]2CN(c3ccc(C#N)c4nccnc34)C[C@@H]2C(F)(F)F)C1 (some centres unmarked)"
study_target = "human TLR9 (Homo sapiens)"
recorded_endpoint = "IC50"
units_text = "nM"
reported_value = 314

[[record]]
compound = "C[C@H]1CN(C[C@H]2CN(c3ccc(C#N)c4nccnc34)C[C@@H]2C(F)(F)F)CC[C@H]1N"
study_target = "human TLR9 (Homo sapiens)"
recorded_endpoint = "IC50"
units_text = "nM"
reported_value = 506

[[record]]
compound = "N#Cc1ccc(N2CC(CN3CCC4(CCCCN4)CC3)C3(CC3)C2)c2nccnc12 (centres unmarked)"
study_target = "human TLR9 (Homo sapiens)"
recorded_endpoint = "IC50"
units_text = "nM"
reported_value = 68

[[record]]
compound = "C[C@@H]1CN(c2ccc(C(F)(F)F)c3nccnc23)C[C@H]1CN1CCC(N2CCCCC2)CC1 (relative stereo)"
study_target = "human TLR9 (Homo sapiens)"
recorded_endpoint = "IC50"
units_text = "nM"
reported_value = 863

[[record]]
compound = "CN1CCC2(CCN(C[C@H]3CN(c4ccc(C#N)c5nccnc45)C[C@@H]3C(F)(F)F)C2)C1 (some centres unmarked)"
study_target = "human TLR9 (Homo sapiens)"
recorded_endpoint = "IC50"
units_text = "nM"
reported_value = 409


Which IC50 reading was recorded for the compound N#Cc1ccc(N2CCC(CN3CCC4(CCNCC4)CC3)C2)c2nccnc12 (centres unmarked) ?
32

Which IC50 reading was recorded for the compound `N#Cc1ccc(N2C[C@H](CN3CCC4(CCNC4)CC3)[C@@H](C(F)(F)F)C2)c2cccnc12` ?
152
